These entries and their values trace back to ChEMBL document CHEMBL2429715.

Recorded inhibition of growth at 10 µM by entry
Test system: K562
TEST: Growth inhibition of human K562 cells at 10 uM after 48 hrs by MTT assay relative to control
Format: functional
STATED CONDITIONS: K562, 48 h, read-out: GI

{"MOLECULE": "COc1cc(OC)c2c(c1)C(=O)c1cc(CNCCCCN)cc(OC)c1C2=O.Cl.Cl", "TEST SYSTEM": "K562", "UNIT SPEC": "%", "inhibition of growth at 10 µM": 0.01}
{"MOLECULE": "COc1cc(OC)c2c(c1)C(=O)c1cc(CNCCCNCCCN)cc(OC)c1C2=O.Cl", "TEST SYSTEM": "K562", "UNIT SPEC": "%", "inhibition of growth at 10 µM": 0.01}
{"MOLECULE": "COc1cc(OC)c2c(c1)C(=O)c1cc(CNCCCN)cc(OC)c1C2=O.Cl.Cl", "TEST SYSTEM": "K562", "UNIT SPEC": "%", "inhibition of growth at 10 µM": 0.01}
{"MOLECULE": "O=C1c2c(O)ccc(O)c2C(=O)c2c(NCCNCCO)ccc(NCCNCCO)c21 [MITOXANTRONE]", "TEST SYSTEM": "K562", "UNIT SPEC": "%", "inhibition of growth at 10 µM": 52.1}
{"MOLECULE": "COc1cc(OC)c2c(c1)C(=O)c1cc(CNCCN)cc(OC)c1C2=O.Cl.Cl", "TEST SYSTEM": "K562", "UNIT SPEC": "%", "inhibition of growth at 10 µM": 0.01}

====

TEST: Growth inhibition of human QSG7701 cells at 10 uM after 48 hrs by MTT assay relative to control
STATED CONDITIONS: read-out: GI
Recorded inhibition at 48 h, 10 µM by entry
ASSAY METRIC: inhibition at 48 h, 10 µM (%)

{"COMPOUND": "COc1cc(OC)c2c(c1)C(=O)c1cc(CNCCCCN)cc(OC)c1C2=O.Cl.Cl", "UNIT SPEC": "%", "READOUT VALUE": 0.01}
{"COMPOUND": "COc1cc(OC)c2c(c1)C(=O)c1cc(CNCCCNCCCN)cc(OC)c1C2=O.Cl", "UNIT SPEC": "%", "READOUT VALUE": 0.01}
{"COMPOUND": "COc1cc(OC)c2c(c1)C(=O)c1cc(CNCCCN)cc(OC)c1C2=O.Cl.Cl", "UNIT SPEC": "%", "READOUT VALUE": 5.77}
{"COMPOUND": "O=C1c2c(O)ccc(O)c2C(=O)c2c(NCCNCCO)ccc(NCCNCCO)c21 [MITOXANTRONE]", "UNIT SPEC": "%", "READOUT VALUE": 59}
{"COMPOUND": "COc1cc(OC)c2c(c1)C(=O)c1cc(CNCCN)cc(OC)c1C2=O.Cl.Cl", "UNIT SPEC": "%", "READOUT VALUE": 2.55}
